This collection of values is drawn from ChEMBL document CHEMBL1201862.

test system: SF-268; test: NCI tumour cell line growth inhibition, 48 h
Activity calls are given as the source filed them. Rule as the data show it: active = GI50 up to about 1.1 µM and inactive = higher.
parameter.measured: GI50

response.value for Nc1ccn(C2OC(COP(=O)(O)Oc3ccccc3)C(O)C2O)c(=O)n1 (stereo not given) (field: GI50) = 20 µM (inactive)

response.value for CC(=O)CCC(=O)C(=[N+]=[N-])S(=O)(=O)c1ccccc1 (field: GI50) = > 100 µM (inactive)

response.value for Cc1c(C(=O)/C=C/c2ccc(Cl)cc2)[n+]([O-])c2ccccc2[n+]1[O-] (field: GI50) = 14.7 µM (inactive)

response.value for O=C(Nc1nnc(S)[nH]1)C(=O)C(c1cnc2ccc([N+](=O)[O-])cc2n1)[N+](=O)[O-] (stereo not given) (field: GI50) = > 100 µM (inactive)

response.value for CCCCCCN(CCCCCC)CCC(=O)c1ccc2cc(Br)c3ccccc3c2c1 (field: GI50) = 28.1 µM (inactive)

====

tested on: MCF7; experiment: NCI tumour cell line growth inhibition, 48 h
The source made the active and inactive calls. No stated cut-off is given here; in the data, active = GI50 up to about 1.1 µM and inactive = higher.
parameter.measured: GI50

response.value for CC(=O)NC(CSC1=C2NC(=O)\C=C/C=C\C=C/C(C)C(O)CC(=O)/C(C)=C\CC(O)/C=C\C(C)C(O)C(C)C=C(C)C(=O)c3c(O)c(C)cc(c3C1=O)C2=O)C(=O)O (centres undefined) (field: GI50) = 53.3 µM (inactive)

response.value for Cc1nc(SCC(=O)Nc2ccccc2)c2sc(=S)n(-c3ccccc3)c2n1 (field: GI50) = > 10 µM (inactive)

response.value for O=C1C(CN2CCCCC2)CCC1CN1CCCCC1 (centres undefined) (field: GI50) = 21.9 µM (inactive)

response.value for O=C1CCCc2cc3c(cc21)CCC3C(=O)O (centres undefined) (field: GI50) = > 100 µM (inactive)

response.value for O=C1CSC2=NCC3(NN12)c1ccccc1-c1ccccc13 (field: GI50) = > 10 µM (inactive)

response.value for N#Cc1c(O)c(/C=N/c2ncccn2)c(=O)n2c1[nH]c1ccccc12 (field: GI50) = 88.9 µM (inactive)

response.value for CC1=CCC[C@H]2[C@](C)(CC3=CC(=O)C4SCCSC4C3=O)[C@@H](C)CC[C@]12C (some centres undefined) (field: GI50) = 20.5 µM (inactive)

response.value for COC1=CC(=O)c2c(c(O)c3oc4cc(OC)cc(C)c4c(=O)c3c2O)C1=O (field: GI50) = 1.69 µM (inactive)

response.value for O=C1Nc2cc([N+](=O)[O-])ccc2N/C1=C/C(=O)c1ccc(Cl)cc1 (field: GI50) = 11.2 µM (inactive)

====

test system: NCI-H460; assay: NCI tumour cell line growth inhibition, 48 h
The source made the active and inactive calls. No stated cut-off is given here; in the data, active = GI50 up to about 1.1 µM and inactive = higher.
parameter.measured: GI50

response.value for CC1=C(C)C(=O)OC(C(C)(O)C2(O)CCC3(O)C4CC(Cl)C5(O)C(O)C=CC(=O)C5(C)C4CCC32C)C1 (stereo not given) (field: GI50) = 36.1 µM (inactive)

response.value for Oc1ccc(Br)cc1/C=N/c1ccc(Oc2ccc(/N=C/c3cc(Br)ccc3O)cc2)cc1 (field: GI50) = > 19.6 µM (inactive)

response.value for Clc1ccccc1-c1nc(-c2ccncc2)no1 [PIFEXOLE] (field: GI50) = 58.7 µM (inactive)

response.value for Nc1ccn(C2OC(COP(=O)(O)Oc3ccccc3)C(O)C2O)c(=O)n1 (stereo not given) (field: GI50) = 2.6 µM (inactive)

response.value for CCOc1ccc2c(c1)[n+]([O-])c(-c1ccc(Cl)cc1)c(N)[n+]2[O-] (field: GI50) = > 100 µM (inactive)

response.value for COC(c1ccc(C(C)(C)C)cc1)(c1ccc(C(C)(C)C)cc1)c1ccc(C(C)(C)C)cc1 (field: GI50) = > 100 µM (inactive)

response.value for O=CCCCC(Sc1ccccc1)Sc1ccccc1 (field: GI50) = > 10 µM (inactive)

response.value for O=c1sc2ccccc2n1CC1CS1 (stereo not given) (field: GI50) = > 100 µM (inactive)

response.value for NC(=O)N/N=C(\CCC(=O)N(Cc1ccccc1)Cc1ccccc1)CC(=O)c1ccc(F)cc1 (field: GI50) = > 100 µM (inactive)

response.value for Clc1cc2nc(C3CCCCO3)[nH]c2cc1Cl (stereo not given) (field: GI50) = 18.6 µM (inactive)

====

test system: SF-295; test: NCI tumour cell line growth inhibition, 48 h
Active and inactive are the calls of the source. Rule as the data show it: active = GI50 up to about 1.1 µM and inactive = higher.
Give your call using only these classes: active, inactive

q: Entry OC1OCC(COc2cc(Cl)c(Cl)cc2Cl)OC1O (configuration not stated) : call = ?
a: inactive

q: Entry COC(=O)c1ccccc1/C=C1/Cc2cccc(C)c2C1=O : call = ?
a: inactive

q: Entry COc1cc(/C=C2\CC3C4CC=C5C[C@@H](O)CC[C@]5(C)C4CC[C@]3(C)\C2=N\O)cc(OC)c1OC (some centres not stated) : call = ?
a: inactive

q: Entry COc1cc(O)c2c(=O)c(OC)c(-c3ccc4c(c3)OCO4)oc2c1 : call = ?
a: inactive

q: Entry O=[N+]([O-])c1cccc(C2=NN(c3ccccc3)C[N+](c3ccc(Br)cc3)=N2)c1 : call = ?
a: inactive

q: Entry CCCCCCCCCC(=O)OCC1OC(n2cc(F)c(=O)[nH]c2=O)C(NC(=O)OCc2ccccc2)C(OC(=O)CCCCCCCCC)C1O (configuration not stated) : call = ?
a: inactive

q: Entry CC(C)C(Nc1ncnc2nc[nH]c12)C(=O)O (configuration not stated) : call = ?
a: inactive

q: Entry CCCNC1=Nc2ccccc2[C@@H]2N(C)c3ccccc3C(C)C[C@]12C (some centres not stated) : call = ?
a: inactive

q: Entry Cc1n[nH]c(=S)n(C)c1=S : call = ?
a: inactive

q: Entry COC1CCC(OC2CC(C3(C)CCC4(CC(O)C(C)C(C(C)/C=C(\C)C(=O)C(C)CC(C)C(=O)O)O4)O3)OC3(OC(C4OC(O)(CO)C(C)CC4C)CC3C)C2C)OC1C (configuration not stated) : call = ?
a: active

q: Entry CCc1n[nH]c(=O)n1N1C(=O)C2CC=CCC2C1=O (configuration not stated) : call = ?
a: inactive

q: Entry O=C1CC2SC(COCc3ccccc3)(CCN2Cc2ccccc2)C1 (configuration not stated) : call = ?
a: inactive

q: Entry COc1cc(C/N=c2/nc(N(C)C)ss2)cc(OC)c1OC : call = ?
a: inactive

q: Entry Cc1nc2ccccc2c(=O)n1-c1ccccc1I : call = ?
a: inactive

q: Entry O=C1c2ccccc2C(=O)c2c1oc(=O)c1ccccc21 : call = ?
a: inactive

q: Entry CCC(=O)OC1CCn2c1nc1c2C(=O)C(C)=C(N2CC2)C1=O (configuration not stated) : call = ?
a: active

q: Entry O=C1Nc2cc([N+](=O)[O-])ccc2N/C1=C/C(=O)c1ccc(Cl)cc1 : call = ?
a: inactive

q: Entry NNC(=O)CCC(=O)NC1C2CC3CC(C2)CC1C3 (configuration not stated) : call = ?
a: inactive

q: Entry COC(=O)C1=CC(=O)OC1(OO)c1ccccc1 (configuration not stated) : call = ?
a: inactive

q: Entry Cc1ccc(S(=O)(=O)Nn2c(O)c(C#N)c(-c3ccc(N(C)C)cc3)c(C#N)c2=O)cc1 : call = ?
a: active

q: Entry Cc1ccc2oc3c(c(Br)c(Br)n3C)c(=O)c2c1 : call = ?
a: inactive

q: Entry O=c1[nH]cc(COCCCO)c(=O)[nH]1 : call = ?
a: inactive

====

Would you mind telling me the reported GI50 of each entry?
tested on: OVCAR-5; test: NCI tumour cell line growth inhibition, 48 h
The source made the active and inactive calls. Cut-off read from the data, not from the text of the source: active = GI50 up to about 1.1 µM and inactive = higher.

response.value for O=C(c1ccccc1Cl)n1oc2ccccc2c1=O (field: GI50) = > 100 µM (inactive)

response.value for COc1ccc(-c2nc(N)c(C#N)c3c2CCS(=O)(=O)c2ccc(C)cc2-3)cc1OC (field: GI50) = 19.6 µM (inactive)

response.value for CCOC(=O)/C(C#N)=C1\N[C@H](C(=O)OCC)CO1 (field: GI50) = > 100 µM (inactive)

response.value for CCO/C([O-])=C(\C(=O)c1ccc([N+](=O)[O-])cc1)[n+]1c(C)n(C)c2ccccc21 (field: GI50) = > 100 µM (inactive)

response.value for CC1CC[C@]2(C(=O)O)CCC3(C)C(=CCC4[C@@]5(C)CC[C@H](OS(=O)(=O)c6ccccc6)C(C)(C)C5CC[C@]43C)[C@@H]2[C@H]1C (stereo not given in full) (field: GI50) = > 100 µM (inactive)

response.value for CC(=O)c1nc(C#N)c(N)o1 (field: GI50) = > 100 µM (inactive)

response.value for COc1ccc(N2C(=O)C(=O)C3(CCCCC3)C2=O)c2ccccc12 (field: GI50) = > 10 µM (inactive)

response.value for CCOC(=O)N1CCC(=O)C(CNC23CC4CC(CC(C4)C2)C3)C1 (stereo not given) (field: GI50) = > 100 µM (inactive)

response.value for CC(C)=NN/C(=N\c1ccc(Cl)cc1)NS(=O)(=O)c1ccc(Oc2cccc(Cl)c2C#N)cc1 (field: GI50) = > 100 µM (inactive)

response.value for CC(=O)OCC1OC(OC2CC3C(C)(C)C(OC(C)=O)CC[C@]3(C)C3CCC45CC4(CC[C@H]5C(C)CC(O)[C@@H](O)C(C)(C)O)[C@]23C)C(O)C(O)C1O (stereo not given in full) (field: GI50) = 7.66 µM (inactive)

response.value for CC(C)C(Nc1ncnc2nc[nH]c12)C(=O)O (stereo not given) (field: GI50) = > 100 µM (inactive)

response.value for Nc1ccn(C2CCC(COP(=O)(O)OCC(O)COP(=O)(O)OCC3OC(n4cc(F)c(=O)[nH]c4=O)CC3O)O2)c(=O)n1 (stereo not given) (field: GI50) = 9.93 µM (inactive)

response.value for CSc1ncnc2c1ncn2CC(=O)C1CCC2C3CCC4=CC(=O)CCC4(C)C3CCC12C (stereo not given) (field: GI50) = 23.9 µM (inactive)

response.value for O=C(c1ccccc1)c1cc[n+](C2=C([N-]S(=O)(=O)c3ccccc3)C(=O)c3ccccc3C2=O)cc1 (field: GI50) = 19.2 µM (inactive)

response.value for CC(C)Nc1[nH]c(C(=O)c2ccccc2)c(N)c1C(=S)Nc1ccccc1 (field: GI50) = > 100 µM (inactive)

response.value for COC(=O)C1=C(C)NC(C)=C(C(=O)OC)C1c1ccc(NO)cc1 (field: GI50) = 15.7 µM (inactive)

response.value for CCOC(=O)C(NC(=O)c1cccc(Cl)c1)(N1CCN(c2cc3c(cc2F)c(=O)c(C(=O)O)cn3C2CC2)CC1)C(F)(F)F (stereo not given) (field: GI50) = 16.7 µM (inactive)

response.value for c1csc(-c2cc(-c3ccsc3)cs2)c1 (field: GI50) = 63.1 µM (inactive)

response.value for FC(F)(F)c1ccc(C2SCc3nc4ccccc4n32)cc1 (stereo not given) (field: GI50) = 15.5 µM (inactive)

response.value for Clc1ccc(-c2nnc(-c3c(Cl)c(Cl)c(Cl)c(Cl)c3-c3nc4ccccc4[nH]3)o2)cc1 (field: GI50) = > 100 µM (inactive)

response.value for O=C1/C(=C\c2cccc(Oc3ccccc3)c2)S(=O)(=O)C(c2ccccc2)N1c1cccc(Cl)c1 (stereo not given) (field: GI50) = > 100 µM (inactive)

response.value for COC(=O)CN1c2nc(C#N)c(C#N)nc2N(CC(=O)OC)c2nc(C#N)c(C#N)nc21 (field: GI50) = 8 µM (inactive)

response.value for C[N+](C)(C)CC(=O)N/N=C/c1ccncc1 (field: GI50) = > 100 µM (inactive)

response.value for CCOC(=O)/C(C)=C\[C@@]1(C)O[C@@H](C)[C@@](C)(OC(C)=O)[C@@H]1OC(C)=O (field: GI50) = > 100 µM (inactive)

response.value for CS(=O)(=O)N(CCC#N)c1ccc(/C=C2\N=C(c3ccccc3Cl)OC2=O)cc1 (field: GI50) = > 100 µM (inactive)
